assay: In vivo pharmacokinetic study, rat; conditions: rat, blood, intravenous; read-out: Vss
metric-name: Vd (L/kg)
Please respond with the number in L/kg and leave the unit unwritten.

// known answers, use as guide
compound	metric-name	recorded-result
CNC(=O)c1c(-c2ccc(F)cc2)oc2cc(N(Cc3cc(F)c4c(c3)COB4O)S(C)(=O)=O)c(C3CC3)cc12 [A]	Vd	1
CNC(=O)c1c(-c2ccc(F)cc2)oc2cc(N(c3ccc(B(O)O)c(Cl)c3)S(C)(=O)=O)c(C3CC3)cc12 [Example 1]	Vd	1.3
CNC(=O)c1c(-c2ccc(F)cc2)oc2cc(N(Cc3ccc(B(O)O)c(Cl)c3)S(C)(=O)=O)c(C3CC3)cc12 [B]	Vd	2.5
CNC(=O)c1c(-c2ccc(F)cc2)oc2cc(N(c3cc(Cl)c4c(c3)COB4O)S(C)(=O)=O)c(C3CC3)cc12 [Example 15]	Vd	0.9
CNC(=O)c1c(-c2ccc(Cl)cc2)oc2cc(N(Cc3ccc(B(O)O)c(F)c3)S(C)(=O)=O)c(C3CC3)cc12 [C]	Vd	1.1

Okay, now this compound:
Measured Vd of CNC(=O)c1c(-c2ccc(F)cc2)oc2cc(N(Cc3ccc(B(O)O)c(F)c3)S(C)(=O)=O)c(C3CC3)cc12 [D] : 0.8

---

test: In vivo pharmacokinetic study, monkey; set-up: species or system cynomolgus monkey; settings: cynomolgus monkey, oral; Monkey (plasma)
metric-name: bioavailability (%)
Please respond with the number in % and leave the unit unwritten.

Measured bioavailability of `CNC(=O)c1c(-c2ccc(F)cc2)oc2cc(N(Cc3ccc(B(O)O)c(F)c3)S(C)(=O)=O)c(C3CC3)cc12` : 28

---

assay: In vivo pharmacokinetic study, rat; conditions: rat, blood, intravenous
Hi! Just check whether clearance is below 10 mL/min/kg. Below gives true, equal or above gives false.

item-smiles	classification
CNC(=O)c1c(-c2ccc(F)cc2)oc2cc(N(Cc3ccc(B(O)O)c(Cl)c3)S(C)(=O)=O)c(C3CC3)cc12	false
CNC(=O)c1c(-c2ccc(F)cc2)oc2cc(N(Cc3ccc(B(O)O)c(F)c3)S(C)(=O)=O)c(C3CC3)cc12	false
CNC(=O)c1c(-c2ccc(Cl)cc2)oc2cc(N(Cc3ccc(B(O)O)c(F)c3)S(C)(=O)=O)c(C3CC3)cc12	false

Lookup: Hello, is clearance of the following molecule strictly smaller than 10 mL/min/kg? `CNC(=O)c1c(-c2ccc(F)cc2)oc2cc(N(Cc3cc(F)c4c(c3)COB4O)S(C)(=O)=O)c(C3CC3)cc12`
Found: false

Lookup: Hello, is clearance of the following molecule strictly smaller than 10 mL/min/kg? `CNC(=O)c1c(-c2ccc(F)cc2)oc2cc(N(c3ccc(B(O)O)c(Cl)c3)S(C)(=O)=O)c(C3CC3)cc12`
Found: true

Lookup: Hello, is clearance of the following molecule strictly smaller than 10 mL/min/kg? `CNC(=O)c1c(-c2ccc(F)cc2)oc2cc(N(c3cc(Cl)c4c(c3)COB4O)S(C)(=O)=O)c(C3CC3)cc12`
Found: true

---

test: In vivo pharmacokinetic study, dog; conditions: Dog
Listed here: items and their measured DNAUC.

// known answers, use as guide
item-smiles	recorded-result
CNC(=O)c1c(-c2ccc(F)cc2)oc2cc(N(Cc3cc(F)c4c(c3)COB4O)S(C)(=O)=O)c(C3CC3)cc12	1074 ng·h/mL/mg/kg
CNC(=O)c1c(-c2ccc(F)cc2)oc2cc(N(Cc3ccc(B(O)O)c(F)c3)S(C)(=O)=O)c(C3CC3)cc12	1147 ng·h/mL/mg/kg
CNC(=O)c1c(-c2ccc(F)cc2)oc2cc(N(c3ccc(B(O)O)c(Cl)c3)S(C)(=O)=O)c(C3CC3)cc12	6438 ng·h/mL/mg/kg

Okay, now this molecule:
Measured DNAUC of `CNC(=O)c1c(-c2ccc(F)cc2)oc2cc(N(c3cc(Cl)c4c(c3)COB4O)S(C)(=O)=O)c(C3CC3)cc12` : 11480 ng·h/mL/mg/kg
